B1: Transitional endoplasmic reticulum ATPase, residues 26 to 106; numbered along this chain, P55072 (parent)
chain: LIVDEAINEDNSVVSLSQPKMDELQLFRGDTVLLKGKKRREAVCIVLSDDTCSDEKIRMNRVVRNNLRVRLGDVISIQPCP

Variants of: B1
Assay: abundance fitness (aPCA) (normalised: wild type 0, dead -1); higher = more abundant; growth selection in yeast, the domain comes from the species named
Settings: Homo sapiens
Reported metric: abundance fitness
Reply with the value as a number alone.

## Task Specify measured abundance fitness for `D10V` .
## Result -0.14
